assay: in vitro; conditions: human, hela cells, % viability
Lab note - cut at 90% for viability at 28.5 h, 10 µM: true (1) if strictly below, false (0) if not.

Molecule	Class Label
c1ccc(CCNc2cncc(-c3cccs3)n2)nc1 [CBK065510]	false (0)
Cc1nn(C)cc1C(=O)N1CCCC1c1nc2ccccc2[nH]1 (stereo not shown) [CBK282371]	true (1)
O=C(CNC(=S)NC(=O)c1ccc(Br)o1)c1ccccc1 [CBK265310]	false (0)
Cn1c(SCC(=O)Nc2c(F)cc(F)cc2Br)nnc1-c1cnccn1 [CBK267584]	false (0)
O=C(Nc1ccccc1-c1nc2ccccc2s1)c1cc(Br)ccc1Cl [CBK266280]	false (0)
CCn1cc(CN(Cc2cccnc2)Cc2ccccc2OC)cn1 [CBK307224]	true (1)
CCc1nc(COC(=O)C2CCN(C(=O)c3ccc(F)cc3)CC2)cs1 [CBK305725]	false (0)

====

experiment: in vitro; conditions: human, hela cells, % viability

Molecule	viability at 28.5 h, 10 µM, %
COC1C(O)C(CO)OC1n1cnc2c(N)nc(N)nc21 (stereo not drawn)	95.4
CCCCC(O)C[N+]1(C)CCC(c2ccccc2)CC1 (stereo not drawn) [CBK006696I]	101
Cc1ccc(SCCNS(=O)(=O)c2ccc3ccccc3c2)cc1	88
COc1cc(Cl)c(C)cc1NC(=O)C1CC=CCC1C(=O)O (stereo not drawn)	94.1
O=c1[nH]c(=O)c2cc(S(=O)(=O)N3CCc4[nH]c5ccccc5c4C3)ccc2[nH]1	96.7
O=C(CSC1c2ccccc2Oc2ccccc21)Nc1ccccc1C(=O)O	98.4
CCCCN(C(=O)c1cc(C)nc2ccccc12)c1ccccc1	89.9
Cc1ccc(-c2nccnc2OCc2ccco2)cc1C	90.2
COc1ccccc1C(=O)Nc1sc2c(c1C#N)CC(C)(C)NC2(C)C	99.9
Nc1nc2c(ncn2[C@H]2C[C@@H](O)[C@@H](CO)O2)c(=S)[nH]1	59.3
CC1=CC(c2ccccc2)N2N=C(NC(=O)CCCC(=O)O)NC2=N1 (stereo not drawn)	81.1
CC1Cc2cc(-c3cn4ccccc4n3)ccc2N1S(C)(=O)=O (stereo not drawn)	94.3
Cc1cc(NC(=O)C(C)(C)C)nc2c1c(=O)oc1ccccc12	78.7
COc1cc(C)c(Nc2cc(-c3cccnc3)ncn2)cc1OC	102
OC(Cn1nc(-c2ccccc2)cc1-c1ccccc1)Cn1c2ccc(Cl)cc2c2cc(Cl)ccc21 (stereo not drawn)	84.7
Cc1nonc1CNC(=O)N1CCOCC(C2CCC2)C1 (stereo not drawn)	97.4
COc1cc(C)c(NC(=O)C(=S)NCc2ccco2)cc1C	103
COc1cccc(CNc2nccnc2-c2ccoc2)c1OC	105
Cc1cn([C@H]2C[C@@H](O)[C@@H](CI)O2)c(=O)[nH]c1=O	96.9
CS(=O)(=O)Nc1ccc2c(ccn2Cc2ccccc2)c1	104
CCc1nn(CC(=O)N2CCCCC2)c(=O)c2cc3ccsc3n12	85.7
O=C(CO)N1CC2(CCN(CCS(=O)(=O)c3ccccc3)CC2)c2ccccc21	97.9
Cc1cc(=O)c2ccccc2n1CC(=O)N(C)CC1CCCCO1 (stereo not drawn)	94.4
CC(C)(CO)CNc1nc(-c2ccc3c(c2)OCO3)cnc1N	105
CCCCOc1nccnc1-c1ccc(C)c(C)c1	95.1
CCOC(=O)c1[nH]c(C)c(CN2CC3CCCN3C[C@@H]2C)c1C (stereo partly drawn)	110
O=C(Nc1ccc2c(c1)OCCO2)c1cc(S(=O)(=O)N2CCCCC2)c(Cl)cc1Cl	90
COc1ccc(/N=c2/cc(C)[nH]c3ncnn23)cc1	91.1
Cc1nn(CC(=O)N(C)CCn2ccnc2C)c(=O)c2ccccc12	91.8
CC(C)(C)C1=CC2=NC3(CCC3)C3C[C@](O)(CO)[C@@H](O)[C@@H]3N2O1 (stereo partly drawn)	91.1
Cc1ccc(S(N)(=O)=O)cc1C(=O)Nc1nncs1	105
COc1ccnc(N2CCCN(CCN3CCOCC3)CC2)n1	119
CC(Cn1cc(Cl)cn1)C(=O)NC(C)C1CC2CCC1C2 (stereo not drawn)	110
CN(C)CCNCCOc1cccc([N+](=O)[O-])c1 [CBK267803C]	99.7
CC(=O)N1CCC(C(=O)Nc2cnc(-c3ccc(F)c(Cl)c3)c(-c3cccnc3)n2)CC1	108
CC(=O)Cc1c(C(=O)O)c(C)nn1-c1ccccc1	104
Cc1ccc(NC(=O)c2cc(NC(=O)C3C4C=CC(C4)C3C(=O)O)ccc2N2CCCCC2)cc1 (stereo not drawn)	107
CN(C)c1ncccc1OC1CCN(c2nnc(C(F)(F)F)s2)C1 (stereo not drawn)	97.1
CCc1nc2ccc(C(=O)NCc3cccs3)cn2c1N(C)CC	108

====

test: in vitro; set-up: Viability of infected HeLa host cells, resazurin conversion, bulk resorufin fluorescence relative to DMSO; details: human, hela cells; bulk resorufin, mean of 2
Lab note - cut at 90% for viability at 28.5 h, 1 µM: MET if strictly below, NOT MET if not.

Molecule	Class Label
Cc1ccc(S(=O)(=O)Nc2ccc(S(=O)(=O)Nc3nccs3)cc2)c([N+](=O)[O-])c1 [CBK267410]	NOT MET
COc1cc(NS(=O)(=O)c2ccc(N/C=C3/CCc4ccccc4C3=O)cc2)nc(OC)n1 [CBK263376]	NOT MET
O=C(NCCCn1ccnc1)c1cc(-c2ccc(Br)cc2)nc2ccccc12 [CBK262645]	NOT MET
O=C(Nc1ccc(S(=O)(=O)Nc2ncccn2)cc1)c1ccc2c(c1)OCCO2 [CBK268132]	MET
COc1ccc(S(=O)(=O)Nc2ccc(S(=O)(=O)Nc3nccs3)cc2)c([N+](=O)[O-])c1 [CBK266801]	NOT MET
O=S(=O)(Nc1nccs1)c1ccc(Nc2ncnc3ccccc23)cc1 [CBK269487C]	NOT MET
O=C(NCCCn1ccnc1)c1cc(-c2cccc(Br)c2)nc2ccccc12 [CBK265476]	NOT MET
CCc1cc(-c2n[nH]cc2-c2nc(C)cs2)c(O)cc1OC [CBK287934]	NOT MET
c1c(C2CC2)[nH]c2nc(N3CCCC3)nc(N3CCCC3)c12 [CBK016707G]	NOT MET
COc1ccc2[nH]cc(CCNC(=O)c3ccc([N+](=O)[O-])c(C)c3)c2c1 [CBK269426]	MET
Nc1cccc2c(OCCO)cccc12 [CBK001976C]	NOT MET

====

# viability at 28.5 h, 10 µM listing for each entry below
assay: in vitro; conditions: human, hela cells, % viability

Compound	Units	viability at 28.5 h, 10 µM
N#Cc1ccc(CSc2cccc(F)c2)cc1	%	109
O=C(Nc1cccnc1)N1CCN(c2ccccc2)CC1	%	89.5
CC(NC(=O)N1CCN(c2ccccc2)CC1)c1ccccc1 (stereo not shown)	%	99.3
CC(C)Nc1cncc(OCCCc2ccncc2)n1	%	90.6
C1=CC2CC1CC2CN1CCN(Cc2cccnc2)CC1 (stereo not shown)	%	100
Cc1nc(O)c2c3c(sc2n1)CCCC3	%	83.1
Cn1cnc(S(=O)(=O)N(c2ccc(C(C)(C)C)cc2)C2CCNCC2)c1 [CBK165046T]	%	87.5
Cc1ccc(C(=O)CC(C(=O)O)P(=O)(c2ccccc2)c2ccccc2)cc1 (stereo not shown)	%	90.1
Cc1nn(C)c(C)c1C(=O)Nc1sc2c(c1C#N)CCC(C)C2 (stereo not shown)	%	54.9
CCOc1ccc(CC(=O)N2CCCc3c(cnn3C)C2)cc1	%	101

====

# viability at 28.5 h, 10 µM listing for each entry below
assay: in vitro; conditions: human, hela cells, % viability
Observation Type: viability at 28.5 h, 10 µM (%)

Compound	Observed Measurement
Cc1cc(O)c(C(=O)Nc2cccc(Cl)c2)c(=O)n1Cc1ccco1 [CBK291143]	91.2
Cc1ccc(-c2cc(O)n(-c3nc(C)cc(C)n3)n2)cc1 [CBK270165]	97.1
C[C@@H](Nc1nc(-c2cccc3ncccc23)cnc1N)c1ccccc1 [CBK063755]	107
O=C(Nc1cc(-c2nc3ncccc3o2)ccc1Cl)c1ccco1 [CBK269730]	104
CCOc1cccc2sc(NC(=O)CC)nc12 [CBK287307]	86.5
O=C(Nc1cccc([N+](=O)[O-])c1)c1ccc(CSc2ccccc2)cc1 [CBK265295]	117
Cc1[nH]c2ccccc2c1C(=O)CSc1nc2ccccc2[nH]1 [CBK266494]	63.6
COc1ccc(Cl)cc1N1CCN(Cc2ccc(C(C)C)cc2)CC1 [CBK126407]	97.6
CSc1nnc(-c2ccccc2O)n1CCc1ccccc1 [CBK076668]	96.8
Clc1ccc(COc2cncc(OC3CCN(CCN4CCOCC4)C3)n2)cc1Cl (stereo not shown) [CBK084433]	87

====

assay: in vitro; settings: human, hela cells, % viability
Observation Type: viability at 28.5 h, 10 µM

Molecule	Observed Measurement
CCN(CC)CCCNC(=O)N1CCN(c2ccc(F)cc2)CC1	88.6%
CN1CCN(C(=S)c2ccc(OCC(=O)Nc3cccc(C(F)(F)F)c3)cc2)CC1	92.2%
O=C(O)CCN/C(=N\S(=O)(=O)c1ccccc1)c1ccccc1	92.2%
CC(C)(C)c1ccnc(N[C@H]2CO[C@H]3[C@@H]2OC[C@@H]3NC(=O)NCc2ccccc2)n1	87.3%
O=C(NCCc1ccc(O)cc1)c1cncc(-c2ccc(C(=O)N3CCOCC3)cc2)c1	112%
O=C(O)CCSc1nc(-c2ccccc2)cc(=O)[nH]1	102%
Cc1nc(C(C)NC(=O)c2cc(C3CC3)nc3c2c(C)nn3C)cs1 (stereo not drawn)	93.7%
O=S(=O)(Nc1cc(-c2ccco2)n[nH]1)c1ccc(Br)cc1C(F)(F)F	96.2%
CCCN1CCN(Cc2cccc3c2ccn3S(=O)(=O)c2cccs2)CC1 [CBK116196T]	92%

Origin of values: paper PMC12040169
